Test system: ECAC2 mRNA in Caco-2 cells
Format: cell-based
Quick list: ECaC-2 mRNA induction activity in Caco-2 cells per entry.
State the value with its unit after it.

# COMPOUND, OBSERVED
records = [
    ("CCC(CC)(c1ccc(/C=C/C(O)(C(F)(F)F)C(F)(F)F)c(C)c1)c1ccc(OC[C@H]2CCC(=O)O2)c(C)c1", "519%"),
    ("CCC(CC)(c1ccc(C#CC(O)C(C)(C)C)c(C)c1)c1ccc(OC[C@@H](O)CCC(=O)O)c(C)c1 (some centres unmarked)", "114%"),
    ("CCC(CC)(c1ccc(C#CC(O)(C(F)(F)F)C(F)(F)F)c(C)c1)c1ccc(OC[C@@H](O)CCCO)c(C)c1", "1662%"),
    ("CCC(CC)(c1ccc(/C=C/C2(O)CCCC2)c(C)c1)c1ccc(OCCCCCN)c(C)c1", "75%"),
    ("CCc1cc(C(CC)(CC)c2ccc(C(=O)N[C@H](C)C(=O)O)s2)ccc1OCC(C)(O)C(C)(C)C (single isomer, unassigned) [Compound A, reference compound]", "123%"),
]

Let us move to another entry and its ECaC-2 mRNA induction activity in Caco-2 cells.
For reference, reported ECaC-2 mRNA induction activity in Caco-2 cells for CCC(CC)(c1ccc(CCC(O)C(C)(C)C)c(C)c1)c1ccc(OC[C@@H](O)CCCC(=O)O)c(C)c1 (some centres unmarked) [Example 186] stands at 57%

---

Tested on: ECAC2 mRNA in Caco-2 cells
Format: cell-based
Below: a set of entries, each annotated with reported ECaC-2 mRNA induction activity in Caco-2 cells.
Express the result in % but write the number alone.

Use these answered entries as a reference point.
# MOLECULE, OBSERVED
data = [
    ("CCC(CC)(c1ccc(/C=C/C2(O)CCCC2)c(C)c1)c1ccc(OC[C@@H](O)CCC(=O)O)c(C)c1", 538),
    ("CCC(CC)(c1ccc(C#CC(O)(C(F)(F)F)C(F)(F)F)c(C)c1)c1ccc(CCC(=O)O)c(C)c1", 399),
    ("CCC(CC)(c1ccc(CCC(O)(C(F)(F)F)C(F)(F)F)c(C)c1)c1ccc(OCC(CO)CO)c(C)c1", 178),
    ("CCC(CC)(c1ccc(C#CC(O)C(C)(C)C)c(C)c1)c1ccc(OC[C@@H](O)CO)c(C)c1 (some centres unmarked)", 126),
    ("CCC(CC)(c1ccc(/C=C/C(O)C(C)(C)C)c(C)c1)c1ccc(OC[C@@H](O)CCC(=O)O)c(C)c1 (some centres unmarked)", 2093),
]

Note to self: ECaC-2 mRNA induction activity in Caco-2 cells of CCC(O)(/C=C/c1ccc(C(CC)(CC)c2ccc(OCc3ccc(C(=O)O)cc3)c(C)c2)cc1C)CC with ECAC2 mRNA in Caco-2 cells was 75

Item: CCC(O)(/C=C/c1ccc(C(CC)(CC)c2ccc(OCC(=O)CCC(=O)O)c(C)c2)cc1C)CC | System: ECAC2 mRNA in Caco-2 cells | ECaC-2 mRNA induction activity in Caco-2 cells: 271

Lab note: molecule CCC(CC)(c1ccc(C#CC(O)(C(F)(F)F)C(F)(F)F)c(C)c1)c1ccc(OC[C@H]2CCCC(=O)O2)c(C)c1 tested on ECAC2 mRNA in Caco-2 cells; recorded ECaC-2 mRNA induction activity in Caco-2 cells was 117
